System: BALB/c female mouse
Experiment: Immune response to individual peptide: mouse immunization, then indirect solid-phase immunoenzymatic assay (ELISA) of serum antibodies to peptide
Assay type: in vivo
Details: BALB/c mice, i.p. 100 μg peptide+Str-HRP with Freund's adjuvant, serum day 38, ELISA A450
# key: entry, value: Overall ranking of antigenicity

substance	assay system	Overall ranking of antigenicity
T-Y-K-W-E-T-F-L-T-R-E-M-P-A (TYKWETFLTREMPA; Mycobacterium Tuberculosis Synthetic Peptide) [SEQ ID 5, oligopeptide from MT Antigen 85 (Ag 85)]	BALB/c female mouse	9
T-D-S-E-R-A-W-V-S-R-G-A (TDSERAWVSRGA; Mycobacterium Tuberculosis Synthetic Peptide) [SEQ ID 10, oligopeptide from MT Cytotoxin/Hemolysin]	BALB/c female mouse	10
L-R-A-Q-D-D-Y-N-G-W-D-I (LRAQDDYNGWDI; Mycobacterium Tuberculosis Synthetic Peptide) [SEQ ID 4, oligopeptide from MT Antigen 85 (Ag 85)]	BALB/c female mouse	2
A-G-R-R-C-L-D-A-G (AGRRCLDAG; Mycobacterium Tuberculosis Synthetic Peptide) [SEQ ID 11, oligopeptide from MT Cytotoxin/Hemolysin]	BALB/c female mouse	6
N-E-L-G-A-S-Q-A-I-D-L-L-K-G-V (NELGASQAIDLLKGV; Mycobacterium Tuberculosis Synthetic Peptide) [SEQ ID 9, oligopeptide from MT Exported Repetitive Protein (Erp)]	BALB/c female mouse	5
